From: the supplement of paper PMC4862054

Tested on: HDQ-P1
TEST METHOD NOTES: normalised response (% of control), CellTiter-Glo; higher = more viable cells (100 = DMSO, 0 = benzethonium chloride kill control)
EXPERIMENTAL CONTEXT: incubation time: 72 h
MEASURED PARAMETER: normalised response (%)
The answer is to be given in %; state only the numeric part.

What does the data say about its normalised response? Entry: CCCCCCCCc1ccc(CCC(N)(CO)CO)cc1 [Fingolimod] (1000 nM) 103

Consider next the molecule O=C(O)CCCc1ccc(N(CCCl)CCCl)cc1 [Chlorambucil] (1 nM) in the same way. 101

Consider next the molecule Cn1cncc1[C@@](N)(c1ccc(Cl)cc1)c1ccc2c(c1)c(-c1cccc(Cl)c1)cc(=O)n2C [Tipifarnib] (1000 nM) in the same way. 76.4

Consider next the molecule CN(C)CCN1C(=O)c2cccc3cc(N)cc(c23)C1=O [Amonafide] (10 nM) in the same way. 100

Consider next the molecule CN(C)CCN1C(=O)c2cccc3cc(N)cc(c23)C1=O [Amonafide] (1000 nM) in the same way. 102

Consider next the molecule CNNCc1ccc(C(=O)NC(C)C)cc1 [Procarbazine] (10 nM) in the same way. 109

Consider next the molecule CN1CCN(CCOc2cc(OC3CCOCC3)c3c(Nc4c(Cl)ccc5c4OCO5)ncnc3c2)CC1 [Saracatinib] (1 nM) in the same way. 94.5

Consider next the molecule O=C1NC(=O)[C@@H](c2cn3c4c(cccc24)CCC3)[C@@H]1c1c[nH]c2ccccc12 [Tivantinib] (0.1 nM) in the same way. 101

###

System: CAL-51
TEST METHOD NOTES: normalised viability (% of control), CellTiter-Blue; higher = more viable cells (about 100 = DMSO control)
EXPERIMENTAL CONTEXT: 3 nM; incubation time: 72 h
normalised viability values, listed per item
The answer is to be given in %; state only the numeric part.

Please review the entries below; each comes with its answer.
> print(dat)
                                   compound  study.system    measured.parameter  unit.abbrev  experimental.value
1  O=C(O)CCCc1ccc(N(CCCl)CCCl)cc1 [Chlorambucil]        CAL-51  normalised viability            %                 115
2  CNNCc1ccc(C(=O)NC(C)C)cc1 [Procarbazine]        CAL-51  normalised viability            %                 107
3  CCCCCCCCc1ccc(CCC(N)(CO)CO)cc1 [Fingolimod]        CAL-51  normalised viability            %                 119

Kindly review the next compound as well.
What does the data say about its normalised viability? Entry: CN(C)C[C@@H]1CCn2cc(c3ccccc32)C2=C(C(=O)NC2=O)c2cn(c3ccccc23)CCO1 [Ruboxistaurin] 98.6

###

normalised response values, listed per item
Test system: MDA-MB-436
TEST METHOD NOTES: normalised response (% of control), CellTiter-Glo; higher = more viable cells (100 = DMSO, 0 = benzethonium chloride kill control)
EXPERIMENTAL CONTEXT: incubation time: 72 h
The answer is to be given in %; state only the numeric part.

> print(dat)
                                   compound   measured.parameter  experimental.value
1  CNNCc1ccc(C(=O)NC(C)C)cc1 [Procarbazine] (1000 nM)  normalised response                 104
2  CN(C)C[C@@H]1CCn2cc(c3ccccc32)C2=C(C(=O)NC2=O)c2cn(c3ccccc23)CCO1 [Ruboxistaurin] (1 nM)  normalised response                 105

What does the data say about its normalised response? Entry: NS(=O)(=O)OC[C@@H]1C[C@@H](n2ccc3c(N[C@H]4CCc5ccccc54)ncnc32)C[C@@H]1O [Pevonedistat] (10 nM) 96.6

###

Test system: MDA-MB-453
TEST METHOD NOTES: normalised response (% of control), CellTiter-Glo; higher = more viable cells (100 = DMSO, 0 = benzethonium chloride kill control)
EXPERIMENTAL CONTEXT: incubation time: 72 h
normalised response values, listed per item

> print(dat)
                                   compound  experimental.value
1  CC(C)c1c(C(=O)Nc2ccccc2)c(-c2ccccc2)c(-c2ccc(F)cc2)n1CC[C@@H](O)C[C@@H](O)CC(=O)O [Atorvastatin] (100 nM)                111%

What does the data say about its normalised response? Entry: Nc1nc(OCc2cc(Br)cs2)c2[nH]cnc2n1 [Lomeguatrib] (100 nM) 95.2%

Consider next the compound Cc1ccc(NC(=O)c2ccc(CN3CCN(C)CC3)cc2)cc1Nc1nccc(-c2cccnc2)n1 [Imatinib] (100 nM) in the same way. 111%

Consider next the compound O=C(O)CCCc1ccc(N(CCCl)CCCl)cc1 [Chlorambucil] (100 nM) in the same way. 104%

Consider next the compound c1ccc([C@H]2CN3CCSC3=N2)cc1 [Levamisole] (100 nM) in the same way. 110%

###

Test system: MCF-10A
TEST METHOD NOTES: normalised response (% of control), CellTiter-Glo; higher = more viable cells (100 = DMSO, 0 = benzethonium chloride kill control)
EXPERIMENTAL CONTEXT: incubation time: 72 h
normalised response values, listed per item
The answer is to be given in %; state only the numeric part.

State its normalised response on MCF-10A: CC(C)(C#N)c1cc(Cn2cncn2)cc(C(C)(C)C#N)c1 [Anastrozole] (1000 nM) 105

###

normalised viability values, listed per item
Tested on: SK-BR-3
TEST METHOD NOTES: normalised viability (% of control), CellTiter-Blue; higher = more viable cells (100 = DMSO, 0 = benzethonium chloride kill control)
EXPERIMENTAL CONTEXT: 1 nM; incubation time: 72 h
The answer is to be given in %; state only the numeric part.

Please review the entries below; each comes with its answer.
> print(dat)
                                   compound    measured.parameter  experimental.value
1  CN(C)C[C@@H]1CCn2cc(c3ccccc32)C2=C(C(=O)NC2=O)c2cn(c3ccccc23)CCO1 [Ruboxistaurin]  normalised viability                99.3
2  CNNCc1ccc(C(=O)NC(C)C)cc1 [Procarbazine]  normalised viability                 106
3  O=C(O)CCCc1ccc(N(CCCl)CCCl)cc1 [Chlorambucil]  normalised viability                 101

Kindly review the next compound as well.
What does the data say about its normalised viability? Entry: CC(C)(C#N)c1cc(Cn2cncn2)cc(C(C)(C)C#N)c1 [Anastrozole] 97.7

###

System: CAL-85-1
TEST METHOD NOTES: normalised viability (% of control), CellTiter-Blue; higher = more viable cells (about 100 = DMSO control)
EXPERIMENTAL CONTEXT: 3 nM; incubation time: 72 h
normalised viability values, listed per item
The answer is to be given in %; state only the numeric part.

SAMPLE SMILES	UNIT ABBREV	EXPERIMENTAL VALUE
CC(C)(C#N)c1cc(Cn2cncn2)cc(C(C)(C)C#N)c1	%	93.4
CNNCc1ccc(C(=O)NC(C)C)cc1	%	95.6
CC[C@]1(O)C[C@H]2CN(CCc3c([nH]c4ccccc34)[C@@](C(=O)OC)(c3cc4c(cc3OC)N(C=O)[C@H]3[C@@](O)(C(=O)OC)[C@H](OC(C)=O)[C@]5(CC)C=CCN6CC[C@]43[C@@H]65)C2)C1	%	86.1

Kindly review the next molecule as well.
What does the data say about its normalised viability? Entry: O=C(O)CCCc1ccc(N(CCCl)CCCl)cc1 101

###

Tested on: MDA-MB-436
TEST METHOD NOTES: drug sensitivity score (DSS), CellTox Green (DSS (AUC-based score)); higher = stronger drug effect (viability inhibition or cytotoxicity); extreme values may be limits of the assay
EXPERIMENTAL CONTEXT: incubation time: 72 h
MEASURED PARAMETER: drug sensitivity score

Please review the entries below; each comes with its answer.
> print(dat)
                                   molecule  experimental.value
1  CCCCCCCCc1ccc(CCC(N)(CO)CO)cc1 [Fingolimod]                2.64
2  O=C1NC(=O)[C@@H](c2cn3c4c(cccc24)CCC3)[C@@H]1c1c[nH]c2ccccc12 [Tivantinib]                   0
3    Nc1ncnc2c1c(COc1cccc(Cl)c1)nn2C1CCOCC1                   0

What does the data say about its drug sensitivity score? Entry: CN1CCN(CCOc2cc(OC3CCOCC3)c3c(Nc4c(Cl)ccc5c4OCO5)ncnc3c2)CC1 [Saracatinib] 9.13

Consider next the molecule Nc1nc(OCc2cc(Br)cs2)c2[nH]cnc2n1 [Lomeguatrib] in the same way. 0

Consider next the molecule CC(C)(C#N)c1cc(Cn2cncn2)cc(C(C)(C)C#N)c1 [Anastrozole] in the same way. 0
